Test system: HCT-116 cells
Assay: MTT cytotoxicity assay, HCT-116
Type: cell-based, human
Details: Homo sapiens, HCT-116, 72 h, read-out: GI50 ± SD (μM) HCT-116
quantity.measured: GI50 (µM)
Provide only the numeric value, understood in µM.

Worked examples follow.
COc1cc2c(=O)n(C)c3c4cc5c(cc4c(OCCCN(C)C)cc3c2cc1OC)OCO5 [Compound 15] :: 36
COc1cc2c(=O)n(C)c3c4cc5c(cc4cc(OCCN(C)C)c3c2cc1OC)OCO5 [Compound 34] :: 11
CCN(CC)CCCOc1cc2cc3c(cc2c2c1c1cc(OC)c(OC)cc1c(=O)n2C)OCO3 [Compound 37] :: 2.4
COc1cc2c(=O)n(C)c3c4cc5c(cc4cc(OCCN4CCOCC4)c3c2cc1OC)OCO5 [Compound 40] :: 15
CCN(CC)CCOc1cc2cc3c(cc2c2c1c1cc(OC)c(OC)cc1c(=O)n2C)OCO3 [Compound 36] :: 2.1
COc1cc2c(=O)n(C)c3c4cc5c(cc4cc(OCCN4CCCC4)c3c2cc1OC)OCO5 [Compound 38] :: 0.25
COc1cc2c(=O)n(C)c3c4cc5c(cc4c(OCCN(C)C)cc3c2cc1OC)OCO5 [Compound 14] :: 4.6
COc1cc2c(=O)n(C)c3c4cc5c(cc4c(OCCCN4CCCCC4)cc3c2cc1OC)OCO5 [Compound 17] :: 1.8
COc1cc2c(=O)n(C)c3c4cc5c(cc4c(OCCCN4CCN(C)CC4)cc3c2cc1OC)OCO5 [Compound 19] :: 1.5
COc1cc2c(=O)n(C)c3c4cc5c(cc4cc(OCCCNCCO)c3c2cc1OC)OCO5 [Compound 43] :: 0.29

(Q) Give the reported GI50 for this molecule. COc1cc2c(=O)n(C)c3c4cc5c(cc4c(OCCN4CCN(C)CC4)cc3c2cc1OC)OCO5 [Compound 18]
(A) 7.7

(Q) Give the reported GI50 for this molecule. COc1cc2c(=O)n(C)c3c4cc5c(cc4c(OCCNCCN(C)C)cc3c2cc1OC)OCO5 [Compound 22]
(A) 9.1

(Q) Give the reported GI50 for this molecule. COc1cc2c(=O)n(C)c3c4cc5c(cc4cc(OCCCN4CCCC4)c3c2cc1OC)OCO5 [Compound 39]
(A) 1.3

###

Target: recombinant human TDP1 (Homo sapiens, UniProt Q9NUW8)
Sequence (Q9NUW8 whole entry): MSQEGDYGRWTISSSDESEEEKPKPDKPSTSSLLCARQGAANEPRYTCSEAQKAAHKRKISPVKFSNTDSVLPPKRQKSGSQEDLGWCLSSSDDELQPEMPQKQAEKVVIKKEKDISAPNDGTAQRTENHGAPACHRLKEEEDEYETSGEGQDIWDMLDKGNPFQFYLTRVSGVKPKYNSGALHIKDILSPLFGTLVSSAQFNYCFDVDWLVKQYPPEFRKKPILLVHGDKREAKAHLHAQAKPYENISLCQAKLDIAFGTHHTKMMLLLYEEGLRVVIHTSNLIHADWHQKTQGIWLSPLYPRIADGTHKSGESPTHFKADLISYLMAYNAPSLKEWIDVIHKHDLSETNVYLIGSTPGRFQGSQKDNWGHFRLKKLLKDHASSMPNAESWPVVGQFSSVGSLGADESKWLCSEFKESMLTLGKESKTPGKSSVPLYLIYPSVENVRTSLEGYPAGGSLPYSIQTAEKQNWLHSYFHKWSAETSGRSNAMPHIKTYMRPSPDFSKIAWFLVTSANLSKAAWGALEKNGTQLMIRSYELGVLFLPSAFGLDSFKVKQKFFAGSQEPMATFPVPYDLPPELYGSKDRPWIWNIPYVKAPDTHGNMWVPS
Assay: TDP1 gel-based inhibition assay
Format: biochemical
pIC50: −log10 of the molar value.
Catalogue of molecules with associated pIC50

Worked examples follow.
COc1cc2c(=O)n(C)c3c4cc5c(cc4cc(OCCCNCCO)c3c2cc1OC)OCO5 [Compound 43] :: 5.00
COc1cc2c(=O)n(C)c3c4cc5c(cc4c(OCCCN4CCN(C)CC4)cc3c2cc1OC)OCO5 [Compound 19] :: < 3.95
COc1cc2c(=O)n(C)c3c4cc5c(cc4c(OCCN(C)C)cc3c2cc1OC)OCO5 [Compound 14] :: 3.95 to 4.43
COc1cc2c(=O)n(C)c3c4cc5c(cc4c(OC(C)=O)cc3c2cc1OC)OCO5 [Compound 10] :: < 3.95
COc1cc2c(=O)n(C)c3c4cc5c(cc4cc(OCCN(C)C)c3c2cc1OC)OCO5 [Compound 34] :: 3.95 to 4.43
CCN(CC)CCCOc1cc2cc3c(cc2c2c1c1cc(OC)c(OC)cc1c(=O)n2C)OCO3 [Compound 37] :: 4.82

Kindly review the next molecule as well.
(Q) Give the reported pIC50 for this molecule. CNCCCOc1cc2c3cc(OC)c(OC)cc3c(=O)n(C)c2c2cc3c(cc12)OCO3 [Compound 13]
(A) < 3.95
